Measured melting point by item

Below: 3 molecules and their reported melting point.
1) O=C1NC(=O)[C@@H](c2c[nH]c3ccccc23)[C@@H]1Cc1cn2c3c(cccc13)CCC2 (racemic)    215 to 218 °C
2) O=C1NC(=O)[C@@H](c2c[nH]c3ccc(Br)cc23)[C@@H]1c1cc2c3c(ccn3CCC2)c1 (racemic)    195 to 200 °C
3) O=C1NC(=O)[C@@H](c2ccccc2Cl)[C@@H]1c1cc2c3c(ccn3CCC2)c1 (racemic)    209 to 212 °C

Data request: Fill in the blank: the reported melting point of O=C1NC(=O)[C@@H](c2cn3c4c(cccc24)CC3)[C@@H]1c1c[nH]c2ccccc12 (racemic) is ____.
Data returned: 144 to 148 °C

Data request: Here is the next molecule: O=C1NC(=O)[C@H](c2c[nH]c3ccccc23)[C@@H]1C(=O)c1cn2c3c(cccc13)CCC2 (racemic)
Data returned: 283 to 285 °C

Data request: Record: O=C1NC(=O)[C@@H](c2cc3c4c(ccn4CCC3)c2)[C@H]1c1c[nH]c2ccccc12 (racemic)
Data returned: 141 to 145 °C
